Molecular target: RSV postfusion F (postF), F deltaFP (Respiratory Syncytial Virus)
Test: BLI, IgG on anti-human IgG sensor, 100 nM antigen
Measured Kd accompanies every entry in the list below.

{"BINDER": "ADI-41196 (antibody, V domains shown) VH: EVQLVESGGGLVQPGGSLRLSCIVSGFPFNTYAMSWVRQAPGKGLEWVSVVSASGGNTDYADSVKGRFTISRDNSKKTLYLQMNSLRAEDTAVYYCARTESNTLAPSWSGRYVTDWYFDLWGRGTLVTVSS VL: EIVMTQSPSSLSASVGDRVTITCRASQSISSFLNWYQQKPGKAPKLLISAASSLQSGVPSRFSGSGSGTDFTLTISSLQPEDFATYYCQQSYSIPTFGQGTRLEIK", "Kd": "0.595 nM"}
{"BINDER": "ADI-41160 (antibody, V domains shown) VH: QVQLVQSGAEVKKPGSSVKVSCKASGGTFSSYPIIWVRQAPGQGLEWMGRIIPILGIASYAQKFQGRVTITADKSTSTAYMELSSLRSEDTAVYYCARNSDFYYGMDVWGQGTTVTVSS VL: QSALIQPASVSGSPGQSITISCTGTSSDVGGYNYVSWYQHHPGKAPKLMIYDVSNRPSGISNRFSGSKSGNTASLTISGLQAEDEADYYCSSYTSSSLYVFGTGTKVTVL", "Kd": "0.337 nM"}
{"BINDER": "ADI-41201 (antibody, V domains shown) VH: EVQLLESGGGLVQPGGSLRLSCAASGFAFDIYSMNWVRQAPGKGLEWLSYISSRGETIYYADSVKGRFTISRDNARNSLYLQMNGLRDEDTATYYCYYYGSGISSHGGAFDYWGQGTLVTVSS VL: DIVMTQTPATLSLSPGERATLTSRASQSVSSFLAWYQQKPGQAPRLLIYDVSNRATGVPARFSGSGSGTDFTLTISSLEPEDIAVYYCQQRNTWPAITFGQGTKVEIK", "Kd": "0.637 nM"}

This collection of values is drawn from patent US20260258115A1.
